Reported values of GI50 for individual entries
# Test system: OVCAR-3
# Assay notes: NCI tumour cell line growth inhibition, 48 h
Activity calls are given as the source filed them. Cut-off read from the data, not from the text of the source: active = GI50 up to about 1.1 µM and inactive = higher.

Reference set, count: 5
## Task Query (compound): C/C(=C/c1ccccc1)CN(C(=O)/C=C\Sc1ccccc1)C(C)(C)C ; field requested: GI50
## Result > 75.3 µM (inactive)

## Task Input CCCCOC(=O)NC(=O)c1cn(CCCOC(=O)CCCCCCCCC(=O)OCCCn2cc(C(=O)NC(=O)OCCCC)c(=O)[nH]c2=O)c(=O)[nH]c1=O
## Result > 100 µM (inactive)

## Task Input CC(C)OC(=O)c1ccc(NCc2cc(O)ccc2O)cc1Cl
## Result 2.56 µM (inactive)

## Task Input COC(CN(C(C)=O)C1CCC2(SCCS2)c2[nH]c3ccccc3c21)OC (centres undefined)
## Result > 100 µM (inactive)

## Task Input CCOC(=O)c1c(N2CCOCC2)[nH]c(=O)c(C(c2ccc(Cl)c([N+](=O)[O-])c2)c2c(O)c(C(=O)OCC)c(N3CCOCC3)[nH]c2=O)c1O
## Result 17.2 µM (inactive)

---
## Task Query (compound): O=C(/C=C/c1ccc(Cl)cc1)c1nc2ccccc2[nH]1 ; field requested: GI50
## Result 12.9 µM (inactive)

## Task Input OC12CC3c4ccccc4NC3C3Oc4cccc5c4C31CCN(CC1CC1)C2C5 (centres undefined)
## Result 16.9 µM (inactive)

## Task Input CCOC(=O)CCC(C(=O)OCC)n1nnc2cc(Nc3c(C)[n+]([O-])c4cc(Cl)ccc4[n+]3[O-])ccc21 (centres undefined)
## Result 40.2 µM (inactive)

## Task Input Clc1ccc(Cc2nc3cc4ccccc4cc3[nH]2)cc1Cl
## Result 22.8 µM (inactive)

---

# Test system: KM-20L2
# Assay notes: NCI tumour cell line growth inhibition, 48 h
The source made the active and inactive calls. Cut-off read from the data, not from the text of the source: active = GI50 up to about 1.1 µM and inactive = higher.
Measurement type: GI50

Reference set, count: 6
## Task Query (compound): CC(/C=C1\CCC(CN(C)C)C1=O)c1cccc(Br)c1 (stereo unspecified) ; field requested: GI50
## Result 21.4 µM (inactive)

## Task Input O=C(CSc1nc(-c2ccccc2)c(-c2ccccc2)[nH]1)N/N=C/c1ccc(O)cc1
## Result 24.5 µM (inactive)

## Task Input CCCNC(/C=C/[Si](C)(C)C)CO.CCCNCC(O)/C=C/[Si](C)(C)C (stereo unspecified)
## Result > 100 µM (inactive)

## Task Input COc1cc(Nc2cnc3cc(C(F)(F)F)ccc3n2)cc(OC)c1OC
## Result > 100 µM (inactive)

## Task Input COC(=O)C(=C/c1ccc(OC)cc1)/C(C(=O)O)=C(/C)c1ccccc1
## Result > 100 µM (inactive)

## Task Input O=C(NCCCCCCCCCCCCNC(=O)c1cccc2ccccc12)c1cccc2ccccc12
## Result > 100 µM (inactive)

---
## Task Query (compound): Cc1ccccc1-n1c(CCl)nc2ccc(Br)cc2c1=O ; field requested: GI50
## Result 17.8 µM (inactive)

## Task Input C=C(CN(C)C)C(=O)c1ccc(C(=O)C(=C)CN(C)C)cc1
## Result > 100 µM (inactive)

## Task Input COC(OC)c1cccc2c1C1(O)CCC3(CC21)OCCCCO3 (stereo unspecified)
## Result > 100 µM (inactive)

## Task Input C[C@@H](O)CCC(=O)c1ccoc1
## Result > 100 µM (inactive)

## Task Input C=C(c1ccccc1N)[C@@]1(O)C[C@H](/C(=C\C)CO)C[C@@H]1NCc1ccccc1
## Result 17.3 µM (inactive)
